Where these numbers come from: paper PMC8533253

Assay Protocol: Cytotoxicity assay (MTT) on NHDF
Assay type: cell-based, human
Experimental Parameters: human, NHDF cells (non-tumor human dermal fibroblasts); 72 h, MTT
Readout Label: IC50 at 72 h (µM)
Field: numeric (µM). Do not append units.

## Input Identify measured IC50 at 72 h associated with CCn1c(O)c(C(c2ccc(Br)cc2)c2c(O)n(CC)c(=S)n(CC)c2=O)c(=O)n(CC)c1=S
## Output 93.2

----------
Let's look at some compounds and their measured melting point.

Please review the following examples before continuing.
CCn1c(O)c(C(c2cc(O)ccc2[N+](=O)[O-])c2c(O)n(CC)c(=S)n(CC)c2=O)c(=O)n(CC)c1=S    167 to 169 °C
CCn1c(O)c(C(c2cc3c(cc2[N+](=O)[O-])OCO3)c2c(O)n(CC)c(=S)n(CC)c2=O)c(=O)n(CC)c1=S    148 to 149 °C
CCn1c(O)c(C(c2ccc(NC(C)=O)cc2)c2c(O)n(CC)c(=S)n(CC)c2=O)c(=O)n(CC)c1=S    178 to 179 °C

## Input Identify measured melting point associated with O=c1[nH]c(=S)[nH]c(O)c1C(c1ccc([N+](=O)[O-])cc1)c1c(O)[nH]c(=S)[nH]c1=O
## Output 225 °C (dec.)

## Input Identify measured melting point associated with CCn1c(O)c(C(C(C)=Cc2ccccc2)c2c(O)n(CC)c(=S)n(CC)c2=O)c(=O)n(CC)c1=S
## Output 145 to 146 °C

## Input Identify measured melting point associated with CCn1c(O)c(C(c2cccc(O)c2)c2c(O)n(CC)c(=S)n(CC)c2=O)c(=O)n(CC)c1=S
## Output 191 to 193 °C

## Input Identify measured melting point associated with CCn1c(O)c(C(c2ccc([N+](=O)[O-])cc2[N+](=O)[O-])c2c(O)n(CC)c(=S)n(CC)c2=O)c(=O)n(CC)c1=S
## Output 169 to 170 °C

----------
Let's look at some compounds and their measured viability at 72 h, 30 µM.
Assay Protocol: Cytotoxicity assay (MTT) on NHDF
Type: cell-based, human
Experimental Parameters: human, NHDF cells (non-tumor human dermal fibroblasts), 30 µM, 72 h, MTT; read-out: Cytotoxicity (% cell viability at 30 µM) NHDF
Method: XO inhibitory and antioxidant assays were performed in triplicate while antiproliferative assay was conducted in quadruplicate. For each assay, at least two independent experiments were performed. […] All in vitro results are expressed as mean values ± standard deviation (SD) of at least two independent determinations. The difference between groups was analyzed for each assay by Student’s t-test. […]
Units required after the number.

## Input Identify measured viability at 72 h, 30 µM associated with O=c1[nH]c(=S)[nH]c(O)c1C(c1ccc([N+](=O)[O-])cc1)c1c(O)[nH]c(=S)[nH]c1=O
## Output 96.6%

## Input Identify measured viability at 72 h, 30 µM associated with CCn1c(O)c(C(c2cccc(O)c2)c2c(O)n(CC)c(=S)n(CC)c2=O)c(=O)n(CC)c1=S
## Output 85.6%

## Input Identify measured viability at 72 h, 30 µM associated with CCn1c(O)c(C(c2ccc(C)cc2)c2c(O)n(CC)c(=S)n(CC)c2=O)c(=O)n(CC)c1=S
## Output 95.6%

## Input Identify measured viability at 72 h, 30 µM associated with CCn1c(O)c(C(c2ccc([N+](=O)[O-])cc2)c2c(O)n(CC)c(=S)n(CC)c2=O)c(=O)n(CC)c1=S
## Output 99.8%

## Input Identify measured viability at 72 h, 30 µM associated with CCn1c(O)c(C(c2cc(O)ccc2[N+](=O)[O-])c2c(O)n(CC)c(=S)n(CC)c2=O)c(=O)n(CC)c1=S
## Output 60.7%

## Input Identify measured viability at 72 h, 30 µM associated with CCn1c(O)c(C(c2ccccc2[N+](=O)[O-])c2c(O)n(CC)c(=S)n(CC)c2=O)c(=O)n(CC)c1=S
## Output 75.8%

## Input Identify measured viability at 72 h, 30 µM associated with CCn1c(O)c(C(c2ccc(N(C)C)cc2[N+](=O)[O-])c2c(O)n(CC)c(=S)n(CC)c2=O)c(=O)n(CC)c1=S
## Output 80.1%
